Catalogue of Selectivity, S = IC50 AChE/IC50 BChE values
molecular target: Equine serum BChE (Equus caballus); construct: two enzymes of non-human origin: equine serum BChE and porcine liver CES; purchased Sigma-Aldrich; host or cells: equine serum; assay: biochemical; settings: ratio IC50 AChE/IC50 BChE
Sequence (P81908 whole entry): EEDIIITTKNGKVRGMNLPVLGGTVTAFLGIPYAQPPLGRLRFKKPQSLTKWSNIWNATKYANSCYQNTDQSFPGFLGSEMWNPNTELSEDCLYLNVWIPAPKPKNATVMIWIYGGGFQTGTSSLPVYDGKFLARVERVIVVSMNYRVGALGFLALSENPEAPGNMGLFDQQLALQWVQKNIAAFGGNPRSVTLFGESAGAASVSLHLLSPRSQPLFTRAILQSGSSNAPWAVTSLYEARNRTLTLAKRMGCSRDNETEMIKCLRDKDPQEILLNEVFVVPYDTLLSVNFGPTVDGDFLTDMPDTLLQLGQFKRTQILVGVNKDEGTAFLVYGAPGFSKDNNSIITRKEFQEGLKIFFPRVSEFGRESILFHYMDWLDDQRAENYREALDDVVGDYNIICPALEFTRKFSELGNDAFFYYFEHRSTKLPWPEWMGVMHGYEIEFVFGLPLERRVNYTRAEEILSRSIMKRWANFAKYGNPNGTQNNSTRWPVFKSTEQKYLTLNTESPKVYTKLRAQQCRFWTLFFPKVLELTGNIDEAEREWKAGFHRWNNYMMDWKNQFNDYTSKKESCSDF
READOUT NAME: Selectivity, S = IC50 AChE/IC50 BChE

>>> reported("Cc1ccc(S(=O)(=O)NCCCCNc2c3c(nc4ccccc24)CCC3)cc1 [7c]")
3.6
>>> reported("Cc1ccc(S(=O)(=O)NCCCNc2c3c(nc4ccccc24)CCCCC3)cc1 [7i]")
64.0
>>> reported("Cc1ccc(S(=O)(=O)NCCCNc2c3c(nc4ccccc24)CCCCCC3)cc1 [7k]")
24.1
>>> reported("Cc1ccc(S(=O)(=O)NCCCNc2c3c(nc4ccccc24)CCC3)cc1 [7b]")
23.7
>>> reported("Cc1ccc(S(=O)(=O)NCCCCCNc2c3c(nc4ccccc24)CCC3)cc1 [7d]")
4.3
>>> reported("Cc1ccc(S(=O)(=O)NCCNc2c3c(nc4ccccc24)CCC3)cc1 [7a]")
9.8
>>> reported("Cc1ccc(S(=O)(=O)NCCCCNc2c3c(nc4ccccc24)CCCC3)cc1 [7g]")
10.8
>>> reported("Cc1ccc(S(=O)(=O)NCCCCNc2c3c(nc4ccccc24)CCCCC3)cc1 [7j]")
14.7
>>> reported("Cc1ccc(S(=O)(=O)NCCCCCNc2c3c(nc4ccccc24)CCCC3)cc1 [7h]")
1.9
>>> reported("Cc1ccc(S(=O)(=O)NCCCNc2c3c(nc4ccccc24)CCCC3)cc1 [7f]")
17.1

====

Catalogue of log10 of IC50 values
biological target: Human erythrocyte AChE (Homo sapiens, UniProt P22303)
Sequence (P22303 other isoform, or with tags, fused parts or gaps): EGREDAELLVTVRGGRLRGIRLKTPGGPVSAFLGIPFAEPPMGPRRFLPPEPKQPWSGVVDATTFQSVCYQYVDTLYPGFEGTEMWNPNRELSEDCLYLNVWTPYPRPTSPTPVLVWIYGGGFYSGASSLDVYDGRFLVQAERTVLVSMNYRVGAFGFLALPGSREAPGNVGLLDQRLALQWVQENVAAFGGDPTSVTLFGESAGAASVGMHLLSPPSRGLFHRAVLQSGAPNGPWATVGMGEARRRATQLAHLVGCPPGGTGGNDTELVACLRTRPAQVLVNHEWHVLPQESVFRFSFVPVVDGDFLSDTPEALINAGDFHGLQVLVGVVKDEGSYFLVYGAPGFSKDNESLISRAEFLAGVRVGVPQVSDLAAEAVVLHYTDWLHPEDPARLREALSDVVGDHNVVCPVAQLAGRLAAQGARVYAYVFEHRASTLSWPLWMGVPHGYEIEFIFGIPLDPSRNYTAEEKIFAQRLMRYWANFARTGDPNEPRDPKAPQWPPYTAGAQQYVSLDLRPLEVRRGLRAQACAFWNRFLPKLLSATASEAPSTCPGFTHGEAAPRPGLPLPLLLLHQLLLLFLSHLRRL
READOUT NAME: log10 of IC50 (log10 of the value in nM)

>>> reported("Cc1ccc(S(=O)(=O)NCCCNc2c3c(nc4ccccc24)CCCCC3)cc1 [7i]")
3.44
>>> reported("Cc1ccc(S(=O)(=O)NCCCNc2c3c(nc4ccccc24)CCCC3)cc1 [7f]")
3.27
>>> reported("Cc1ccc(S(=O)(=O)NCCCCNc2c3c(nc4ccccc24)CCCC3)cc1 [7g]")
2.82
>>> reported("Cc1ccc(S(=O)(=O)NCCCCNc2c3c(nc4ccccc24)CCCCC3)cc1 [7j]")
3.06
>>> reported("Cc1ccc(S(=O)(=O)NCCCCCNc2c3c(nc4ccccc24)CCCC3)cc1 [7h]")
2.12
>>> reported("Cc1ccc(S(=O)(=O)NCCNc2c3c(nc4ccccc24)CCC3)cc1 [7a]")
3.96
>>> reported("Cc1ccc(S(=O)(=O)NCCCCNc2c3c(nc4ccccc24)CCC3)cc1 [7c]")
3.32
>>> reported("Cc1ccc(S(=O)(=O)NCCCNc2c3c(nc4ccccc24)CCC3)cc1 [7b]")
3.89
>>> reported("Cc1ccc(S(=O)(=O)NCCCCCCNc2c3c(nc4ccccc24)CCC3)cc1 [7e]")
3.60
>>> reported("Cc1ccc(S(=O)(=O)NCCCCCNc2c3c(nc4ccccc24)CCC3)cc1 [7d]")
3.29
>>> reported("Cc1ccc(S(=O)(=O)NCCCNc2c3c(nc4ccccc24)CCCCCC3)cc1 [7k]")
4.05

====

Catalogue of log10 of IC50 values
target: Equine serum BChE (Equus caballus); construct: two enzymes of non-human origin: equine serum BChE and porcine liver CES; assay: biochemical; conditions: mean ± SEM, n = 3; pH 7.5, 25 °C
READOUT NAME: log10 of IC50 (log10 of the value in nM)

>>> reported("Cc1ccc(S(=O)(=O)NCCCCCCNc2c3c(nc4ccccc24)CCC3)cc1")
2.32
>>> reported("Cc1ccc(S(=O)(=O)NCCCCNc2c3c(nc4ccccc24)CCCCC3)cc1")
1.90
>>> reported("Cc1ccc(S(=O)(=O)NCCCNc2c3c(nc4ccccc24)CCCCCC3)cc1")
2.66
>>> reported("Cc1ccc(S(=O)(=O)NCCCNc2c3c(nc4ccccc24)CCC3)cc1")
2.51
>>> reported("Cc1ccc(S(=O)(=O)NCCCCNc2c3c(nc4ccccc24)CCC3)cc1")
2.76
>>> reported("Cc1ccc(S(=O)(=O)NCCCCCNc2c3c(nc4ccccc24)CCC3)cc1")
2.66
>>> reported("Cc1ccc(S(=O)(=O)NCCCCCNc2c3c(nc4ccccc24)CCCC3)cc1")
1.83
>>> reported("Cc1ccc(S(=O)(=O)NCCCCNc2c3c(nc4ccccc24)CCCC3)cc1")
1.79
>>> reported("Cc1ccc(S(=O)(=O)NCCNc2c3c(nc4ccccc24)CCC3)cc1")
2.97
>>> reported("Cc1ccc(S(=O)(=O)NCCCNc2c3c(nc4ccccc24)CCCCC3)cc1")
1.63
>>> reported("Cc1ccc(S(=O)(=O)NCCCNc2c3c(nc4ccccc24)CCCC3)cc1")
2.04

Source listed as paper PMC7504258.
